- Assay Summary: chemical genetic growth profiling, strain panel (AID 1159580);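 also: tested at 20 µM; growth read once vehicle control cultures reached saturation at 30 °C; 1 = growth at the plate median or of vehicle wells; lower values mean less growth of the strain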
- Conditions Used: S. cerevisiae deletion strains, growth OD, locus YDR159W, strain sac3, active compounds read low
In all, about 5,500 compounds went through this assay and about 2,000 (36%) were called active. Not shown: some 18% with an inconclusive outcome. Some of the results follow.
normalized growth overview
Readout Label: normalized growth

Molecule	Recorded Measurement
CC(=O)O[C@@H]1CC2C(C)(C)C(=O)C=C[C@]2(C)C2CC[C@@]3(C)[C@H](c4ccoc4)OC(=O)[C@H]4O[C@]43[C@@]21C (stereo partly drawn)	0.949 (inactive)
CC1(C)O[C@H]2CC(=O)OC[C@]23[C@H]2CC[C@@]4(C)[C@H](c5ccoc5)OC(=O)[C@H]5O[C@]54[C@]2(C)C(=O)C[C@@H]13	0.99 (inactive)
CC1(C)C2CC(=O)[C@]3(C)C(CC[C@@]4(C)[C@H](c5ccoc5)OC(=O)C5OC543)[C@@]2(C)[C@@H](O)C[C@H]1O (stereo partly drawn)	1.03 (inactive)

---

normalized growth overview
- Assay Summary: chemical genetic growth profiling, strain panel (AID 1159580)
- Conditions Used: S. cerevisiae deletion strains, growth OD, locus YML094W, strain GIM5, active compounds read low
About 2,000 (36%) of roughly 5,500 compounds were called active. Roughly 18% stayed inconclusive and do not appear here. The list shows a part of the results.

Compound	normalized growth
FC(F)(F)c1ccc(Cl)c(NC(=S)NN=C2CCCCCC2)c1	0.912
Cc1cc(C)c(CSCCNC(=O)Nc2ccc(F)cc2F)c(C)c1	1.04
S=c1nccc(-c2ccc(Cl)cc2)[nH]1	0.879
OC1(C(F)(F)F)CC(c2ccc3ccccc3c2)=NN1 (configuration not stated)	0.192
CCOC(=O)c1sc(S(C)(=O)=O)c2c1CCCC2O (configuration not stated)	1.03
COCCCNC(=S)N/N=C\c1cccc(OC)c1O	0.994
O=[N+]([O-])c1ccc(Oc2cccc3cccnc23)cc1	0.991
O=[N+]([O-])c1ccc(OCCCOc2ccc([N+](=O)[O-])cc2)cc1	0.934
C/C(=N/NC(=S)Nc1ccc(C(C)C)cc1)c1ccco1	0.687
N#Cc1ccc(-c2csc(-c3ccc(Oc4ccc(C(F)(F)F)cn4)cc3)n2)cc1	0.99
C=C1SC(Nc2cccc(C(F)(F)F)c2)=NC12CCCCC2	1.02
O=C1NN=C2C3CC4CC12CC1(C3)C(=O)NN=C41	0.974
Cn1c2c(c3c1CCCC3)CCCC2	0.972
CCOC(=O)N/N=C\c1ccccc1OCC	1.02
CCOC(=O)c1sc(SC(C)C)c2c1CCCC2=O	0.911
COc1ccccc1Oc1ccc(C(F)(F)F)cc1NC(=O)NC(=O)c1ccccc1F	1.02
O=S(=O)(Oc1cc(Cl)cc(Cl)c1)c1cccc(S(=O)(=O)Oc2cc(Cl)cc(Cl)c2)c1	1.01
Cc1onc(-c2ccc(Cl)cc2)c1-c1ccnn1C(=O)NC(C)C	0.964
CCN(CC)C(=O)c1[nH]c(C)c(C)c1C	1.02
OC1(C(F)(F)F)CC(c2ccccc2)=NN1 (configuration not stated)	1
Cc1cc(I)c(C)cc1I	0.95
Cc1cc(Br)c(NC(=O)C(Cl)(Cl)Cl)c(Br)c1	0.944
COc1cc(/C=C(\C#N)C(N)=S)cc(OC)c1OC	0.86
COc1ccc(CCNc2ccc(C(F)(F)F)cc2N)cc1OC	0.972
Cn1[nH]c(=O)cc1C(=O)NN	0.99
Cc1ccc(-c2csc(-c3ccc(Oc4ccc(C(F)(F)F)cn4)cc3)n2)c(C)c1	1
CCOC(=O)C1C(c2cccnc2)C(C(=O)OCC)C(O)(C(F)(F)F)NC1(O)C(F)(F)F (configuration not stated)	0.965

---

- Assay Summary: chemical genetic growth profiling, strain panel (AID 1159580)
- Conditions Used: S. cerevisiae deletion strains, growth OD, locus YJR066W, strain TOR1, active compounds read low
In all, about 5,500 compounds went through this assay and about 2,000 (36%) were called active. Another 18% or so got no clear call; they are omitted. Some of the results follow.
normalized growth overview

Molecule	normalized growth
O=[N+]([O-])c1cc(Cl)cc([N+](=O)[O-])c1Nc1ccccc1	0.969
C[C@@H]1O[C@@H](OC[C@H]2OC(Oc3c(-c4ccc(OCCO)c(OCCO)c4)oc4cc(OCCO)cc(O)c4c3=O)[C@H](O)[C@@H](O)[C@@H]2O)[C@H](O)[C@H](O)[C@H]1O (stereo partly drawn)	0.941
COc1cc(OC)c2c(=O)c(O)c(-c3ccc(OC)c(OC)c3)oc2c1	0.943
COc1ccc(-c2oc3c(CC=C(C)C)c(O[C@@H]4O[C@H](CO)[C@@H](O)[C@H](O)[C@H]4O)cc(O)c3c(=O)c2O[C@@H]2O[C@@H](C)[C@H](O)[C@@H](O)[C@H]2O)cc1	0.949
CN1C[C@H](C(=O)N[C@]2(C)O[C@@]3(O)[C@@H]4CCCN4C(=O)[C@H](Cc4ccccc4)N3C2=O)C[C@@H]2c3cccc4[nH]cc(c34)C[C@H]21	0.94
O=C1[O][Bi][O]c2ccccc21	0.925
O=C1C(Cl)=C(Oc2cc(Cl)c(Cl)cc2Cl)C(=O)c2ccccc21	0.12
CCc1cc(C(N)=S)ccn1	1

---

- Assay Summary: chemical genetic growth profiling, strain panel (AID 1159580);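 also: tested at 20 µM; growth read once vehicle control cultures reached saturation at 30 °C; 1 = growth at the plate median or of vehicle wells; lower values mean less growth of the strain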
- Conditions Used: S. cerevisiae deletion strains, growth OD, locus YDR001C, strain nth1, active compounds read low
Among all 5,500 compounds or so, about 2,000 (36%) were called active. Inconclusive results (about 18%) are left out. The list shows a part of the results.
Please respond with fulfilled when measured normalized growth is strictly beneath 1, and with not fulfilled in all other cases.

Molecule	Class Assignment
COc1ccc(-c2oc3c(CC=C(C)C)c(O[C@@H]4O[C@H](CO)[C@@H](O)[C@H](O)[C@H]4O)cc(O)c3c(=O)c2O[C@@H]2O[C@@H](C)[C@H](O)[C@@H](O)[C@H]2O)cc1	not fulfilled
CCCCOc1cc(C(=O)NCCN(CC)CC)c2ccccc2n1	fulfilled
C[C@@H]1O[C@@H](OC[C@H]2OC(Oc3c(-c4ccc(OCCO)c(OCCO)c4)oc4cc(OCCO)cc(O)c4c3=O)[C@H](O)[C@@H](O)[C@@H]2O)[C@H](O)[C@H](O)[C@H]1O (stereo not given in full)	fulfilled
CCCCCC(=O)Cc1cc(O)cc(O)c1C(=O)Oc1cc(CC(=O)CCCCC)c(C(=O)O)c(OC)c1	fulfilled
C[C@]12CCC3c4ccc(O)cc4CCC3C1CC[C@@H]2O (stereo not given in full)	not fulfilled
C=C(C)[C@H]1COc2cc3oc(=O)ccc3cc2O1	fulfilled

---

- Assay Summary: chemical genetic growth profiling, strain panel (AID 1159580);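 also: tested at 20 µM; growth read once vehicle control cultures reached saturation at 30 °C; 1 = growth at the plate median or of vehicle wells; lower values mean less growth of the strain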
- Conditions Used: S. cerevisiae deletion strains, growth OD, locus YMR001C, strain CDC5, active compounds read low
The whole screen tested about 5,500 compounds, of which about 2,000 (36%) were called active. Inconclusive results (about 18%) are left out. The list shows a part of the results.
Please respond with label 1 when measured normalized growth is strictly beneath 0.9, and with label 0 in all other cases.

Structure	Class Assignment
O=C1Nc2ccccc2/C1=C/c1ccc(C(F)(F)F)cc1Cl	label 0
O=C1Nc2ccccc2/C1=C\c1c(Cl)cccc1Cl	label 0
Oc1c(Cl)cc(Cl)cc1C=Nc1ccc(Sc2ccccc2)nc1Sc1ccccc1	label 0
O=C1C(Cl)=C(Oc2cc(Cl)c(Cl)cc2Cl)C(=O)c2ccccc21	label 1
Cc1ccc(C)n1-c1ccc(/C=C2/C(=O)Nc3ccccc32)cc1	label 0
FC(F)(F)c1ccc(N2CCc3ccccc3C2)c(NC(=S)Nc2cc(Cl)cc(Cl)c2)c1	label 0
Oc1c(Br)cc(Br)cc1C=Nc1ccccn1	label 0
Oc1c(Cl)cc(Cl)cc1/C=N\NC(=S)Nc1cc(C(F)(F)F)cc(C(F)(F)F)c1	label 1

---

- Assay Summary: chemical genetic growth profiling, strain panel (AID 1159580);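 also: tested at 20 µM; growth read once vehicle control cultures reached saturation at 30 °C; 1 = growth at the plate median or of vehicle wells; lower values mean less growth of the strain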
- Conditions Used: S. cerevisiae deletion strains, growth OD, locus YOR144C, strain elg1
Screen size: about 5,500 compounds; about 2,000 (36%) were called active. Inconclusive results (about 18%) are left out. Cut-off read from the data, not from the text of the source: active = normalized growth mostly below about 0.91 (no sharp cut-off); inconclusive = no clear call, values can overlap the other calls; inactive = mostly above about 0.92. The list shows a part of the results.
Possible outcomes: T (active), F (inactive)

Compound	Class Assignment
Oc1cc2c(cc1O)C1c3ccc(O)c(O)c3OCC1(O)C2 (stereo not drawn)	F
CCCCC1C(=O)N(c2ccccc2)N(c2ccc(O)cc2)C1=O (stereo not drawn)	F
COc1c(C(C)C)oc2cc3oc(=O)ccc3cc12	F
COC(=O)[C@]1(C)CCC[C@]2(C)c3ccc(C(C)C)cc3C(=O)CC12 (stereo partly drawn)	F
NC(N)=NC(=O)c1nc(Cl)c(N)nc1N	F
COc1ccc2c(c1)CCC1C2CC[C@@]2(C)C1CC[C@@H]2O (stereo partly drawn)	T
CC(=O)OC(C)C[N+](C)(C)C (stereo not drawn)	F
CC1(C)C2CC(=O)[C@]3(C)C(CC[C@@]4(C)[C@H](c5ccoc5)OC(=O)[C@H]5O[C@]543)[C@@]2(C)C(=O)C[C@H]1O (stereo partly drawn)	F
COC(=O)[C@@]1(C)CCC[C@]2(C)c3ccc(O)c(C(C)C)c3CCC12 (stereo partly drawn)	T
CN[C@@H]1C(O)[C@@H](O[C@@H]2[C@@H](O)[C@H](O[C@H]3OC(CN)=CC[C@H]3N)[C@@H](N)C[C@H]2N)OC[C@]1(C)O (stereo partly drawn)	F
COc1cc(OC)c2c(=O)c(OC)c(-c3ccc(OC)c(OC)c3)oc2c1	F
Cc1ccccc1OCC(O)CO (stereo not drawn)	F
CC1(C)O[C@H]2CC(=O)OC[C@]23[C@H]2CC[C@@]4(C)[C@H](c5ccoc5)OC(=O)[C@H]5O[C@]54[C@]2(C)C(=O)C[C@@H]13	F
C[C@@H]1O[C@@H](OC[C@H]2OC(Oc3c(-c4ccc(OCCO)c(OCCO)c4)oc4cc(OCCO)cc(O)c4c3=O)[C@H](O)[C@@H](O)[C@@H]2O)[C@H](O)[C@H](O)[C@H]1O (stereo partly drawn)	F
CO[C@@]1(NC(=O)C(C(=O)O)c2ccc(O)cc2)C(=O)N2C(C(=O)O)=C(CSc3nnnn3C)CO[C@@H]21 (stereo partly drawn)	F
CCOCN(C(=O)CCl)c1c(C)cccc1CC	F
CC(C)c1c(O)ccc2c1CCC1[C@@](C)(C=O)CCC[C@]21C (stereo partly drawn)	T
CNC(C)C(O)c1ccccc1 (stereo not drawn)	F
CN1C(C)(C)CCCC1(C)C	F
COc1cc(OC)c2c(=O)c(O)c(-c3ccc(OC)c(OC)c3)oc2c1	T
CC(=O)O[C@@H]1CC2C(C)(C)C(=O)C=C[C@]2(C)C2CC[C@@]3(C)[C@H](c4ccoc4)OC(=O)[C@H]4O[C@]43[C@@]21C (stereo partly drawn)	F
OCC(O)C(O)C(O)C(O)C(O)CO (stereo not drawn)	F
CC(C)c1c(O)ccc2c1CCC1[C@@](C)(CO)CCC[C@]21C (stereo partly drawn)	F
CCCC(C)(COC(N)=O)COC(=O)NC(C)C (stereo not drawn)	F
NC(N)=NC(=O)c1nc(Cl)c(N2CCCCCC2)nc1N	F
CC1(C)C(=O)C=C[C@@]2(C)C1C=C[C@]1(C)C2CC[C@@]2(C)[C@H](c3ccoc3)OC(=O)C3OC321 (stereo partly drawn)	F
COc1ccc(-c2cc(=O)c3c(O)cc(O[C@H]4O[C@H](CO[C@@H]5O[C@@H](C)[C@H](O)[C@@H](O)[C@H]5O)[C@@H](O)[C@H](O)[C@H]4O)cc3o2)cc1	F
NC(=O)CN1CCCC1=O	F
COc1cc(OC)c2ccc(=O)oc2c1	F
COc1ccc(-c2oc3c(CC=C(C)C)c(O[C@@H]4O[C@H](CO)[C@@H](O)[C@H](O)[C@H]4O)cc(O)c3c(=O)c2O[C@@H]2O[C@@H](C)[C@H](O)[C@@H](O)[C@H]2O)cc1	F
CC1(C)C(=O)C=C[C@@]2(C)C1C[C@@H](O)[C@]1(C)C2CC[C@@]2(C)[C@H](c3ccoc3)OC(=O)[C@H]3O[C@]321 (stereo partly drawn)	F
COc1cc(O)c2c(=O)c(O)c(-c3ccc(O)c(O)c3)oc2c1	F
CC1(C)C(=O)C=C[C@@]2(C)C1CC(=O)[C@]1(C)C2CC[C@@]2(C)[C@H](c3ccoc3)OC(=O)[C@H]3O[C@]321 (stereo partly drawn)	F
CC1=CC(=O)C2=C(C)CC[C@@H]3[C@H](OC(=O)[C@H]3C)[C@@H]12	F
CC(=O)O[C@@H]1CC(=O)[C@@]2(C)C(CC(=O)[C@]3(C)C2CC[C@@]2(C)[C@H](c4ccoc4)OC(=O)C4OC423)C1(C)C (stereo partly drawn)	F
Cc1cc(C2CCCCC2)n(O)c(=O)c1	T
O=C(Cc1cccs1)NC1C(=O)N2C(C(=O)[O-])=C(C[n+]3ccccc3)CSC12 (stereo not drawn)	F
C[N+](C)(C)CC(O)CC(=O)O (stereo not drawn)	F
